System: RARa homodimer (NR concentration 270 nM)
Test: PBM binding z-score (relative to random genomic background probes); higher = stronger binding; sequences stand for … in GC…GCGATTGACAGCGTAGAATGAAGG
Kindly return Yes if reported PBM binding z-score is no lower than -0.4; return No if it is lower.

residues	classAssignment
TCTTGTAGATCAGCAGGTTAAGAACGCTGGCCAA	No
CAAACTAAGTCACGAAAGGTCAAAGTCGAATGAC	Yes
TCATATAGGTAAACAGGTTAAAGTCCGTAAGTTA	Yes

Is it the case that TCATATAGGTAGACAGGTGAAAGTCCGTAAGTTA has PBM binding z-score reaching or exceeding -0.4?
Yes

Given GCTTGTCGATCAAGGTTAAGAAAGACTAAGCTAA , state whether its PBM binding z-score is at least -0.4.
No
